The origin of these recorded values is ChEMBL document CHEMBL3792355.

System: Escherichia coli
test name: Antimicrobial activity against Escherichia coli ATCC 25922 incubated for 24 hrs by CLSI/NCCLS protocol based method
Assay type: functional
settings: ATCC 25922, 24 h
quantity kind: MIC (µg/mL)
Kindly provide the numeric value in µg/mL only, without the unit symbol.

Inquiry: Look up and report measured MIC for this entry: `Cc1nc2c(-c3ccc(Cl)cc3)n[nH]c2c2nnnn12`
Reply text: 10

Inquiry: Hello, please tell me recorded MIC for this one: `Cc1cc(C)n(C(=O)c2[nH]nc(-c3ccc(Cl)cc3)c2N)n1`
Reply text: 20

Inquiry: Supply recorded MIC for `NC(=S)NNC(=O)c1[nH]nc(-c2ccc(Cl)cc2)c1N` here.
Reply text: 25

Inquiry: Tell me MIC reported for `CC1=NN(C(=O)c2[nH]nc(-c3ccc(Cl)cc3)c2N)C(=O)C1`
Reply text: 25

Inquiry: For the molecule `Cc1nn(C(=O)c2[nH]nc(-c3ccc(Cl)cc3)c2N)c(C)c1Cl` , give its measured MIC value.
Reply text: 15

Inquiry: Give the value of MIC reported for the following: `Cc1csc(NNC(=O)c2[nH]nc(-c3ccc(Cl)cc3)c2N)n1`
Reply text: 20

Inquiry: Supply reported MIC belonging to this molecule: `CO/N=C(\C(=O)N[C@@H]1C(=O)N2C(C(=O)O)=C(COC(C)=O)CS[C@H]12)c1csc(N)n1`
Reply text: 13

Inquiry: Specify reported MIC for the molecule shown: `Cc1nc(Cl)c2[nH]nc(-c3ccc(Cl)cc3)c2n1`
Reply text: 50

Inquiry: Please report the measured MIC for `Nn1c(=S)[nH]c2c(-c3ccc(Cl)cc3)n[nH]c2c1=O`
Reply text: 20
